Target: CYP1A2 (Homo sapiens, UniProt P05177)
Sequence (P05177 whole entry): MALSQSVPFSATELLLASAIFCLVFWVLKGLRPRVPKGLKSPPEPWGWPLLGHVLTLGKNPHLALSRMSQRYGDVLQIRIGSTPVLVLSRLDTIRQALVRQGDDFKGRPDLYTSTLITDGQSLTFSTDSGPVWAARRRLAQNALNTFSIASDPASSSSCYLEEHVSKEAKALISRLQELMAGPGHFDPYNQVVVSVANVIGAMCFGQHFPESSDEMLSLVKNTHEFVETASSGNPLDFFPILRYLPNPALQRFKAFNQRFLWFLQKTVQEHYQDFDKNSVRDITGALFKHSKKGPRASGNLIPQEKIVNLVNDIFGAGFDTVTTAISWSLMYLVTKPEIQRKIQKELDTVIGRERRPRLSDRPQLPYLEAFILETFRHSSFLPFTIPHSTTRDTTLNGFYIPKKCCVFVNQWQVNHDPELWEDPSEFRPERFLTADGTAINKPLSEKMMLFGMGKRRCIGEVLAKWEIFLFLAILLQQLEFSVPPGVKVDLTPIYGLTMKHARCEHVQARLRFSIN
Assay: Example 2 phase 1 drug-drug interaction study, rivoceranib 700 mg QD + 5+1 cocktail: caffeine probe
Settings: human, in vivo, po, probe caffeine, Cmax, Mean (CV %), 5 + 1 cocktail alone, healthy volunteers, single oral 5+1 cocktail dose day 1, fasted
reportedEndpoint: Cmax (ng/mL)

>>> reported("Cn1c(=O)c2c(ncn2C)n(C)c1=O")
5190

----------
Biological target: CYP1A2 (Homo sapiens, UniProt P05177)
Assay: Example 2 phase 1 drug-drug interaction study, rivoceranib 700 mg QD + 5+1 cocktail: caffeine probe
Conditions: human, in vivo, po, 200 mg, probe caffeine, AUC(0-t), Geometric LSM, 5 + 1 cocktail alone, healthy volunteers, single oral 5+1 cocktail dose day 1, fasted
reportedEndpoint: AUC(0-t)

>>> reported("Cn1c(=O)c2c(ncn2C)n(C)c1=O")
"52600 ng·h/mL"

----------
Test system: CYP3A
Assay: Example 2 phase 1 drug-drug interaction study, rivoceranib 700 mg QD + 5+1 cocktail: midazolam probe
Details: human, in vivo, po, 2 mg, Cmax, Geometric LSM, 5 + 1 cocktail alone, healthy volunteers, single oral 5+1 cocktail dose day 1, fasted
reportedEndpoint: Cmax (ng/mL)

>>> reported("Cc1ncc2n1-c1ccc(Cl)cc1C(c1ccccc1F)=NC2")
10.8

----------
# AUC(0-inf) per entry
Molecular target: CYP2D6 (Homo sapiens, UniProt P10635)
Sequence (P10635 whole entry): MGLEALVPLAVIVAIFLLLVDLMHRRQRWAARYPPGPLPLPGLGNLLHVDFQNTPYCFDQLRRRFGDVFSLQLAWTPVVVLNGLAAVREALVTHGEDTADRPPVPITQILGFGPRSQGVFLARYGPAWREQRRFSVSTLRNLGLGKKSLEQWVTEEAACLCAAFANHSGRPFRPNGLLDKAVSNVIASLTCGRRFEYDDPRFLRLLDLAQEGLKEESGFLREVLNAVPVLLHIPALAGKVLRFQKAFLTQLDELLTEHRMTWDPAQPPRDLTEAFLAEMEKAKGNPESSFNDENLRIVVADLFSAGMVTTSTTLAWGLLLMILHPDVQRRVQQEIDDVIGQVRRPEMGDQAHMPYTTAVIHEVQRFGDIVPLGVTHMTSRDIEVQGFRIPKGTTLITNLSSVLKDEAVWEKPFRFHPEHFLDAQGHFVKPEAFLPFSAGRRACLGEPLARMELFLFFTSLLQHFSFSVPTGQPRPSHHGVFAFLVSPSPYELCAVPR
Test: Example 2 phase 1 drug-drug interaction study, rivoceranib 700 mg QD + 5+1 cocktail: dextromethorphan probe
Details: human, in vivo, po, AUC(0-∞), Mean (CV %), 5 + 1 cocktail alone, healthy volunteers, single oral 5+1 cocktail dose day 1, fasted
reportedEndpoint: AUC(0-inf) (ng·h/mL)

>>> reported("COc1ccc2c(c1)[C@]13CCCC[C@@H]1[C@H](C2)N(C)CC3")
14
>>> reported("CN1CC[C@@]23CCCC[C@@H]2[C@@H]1Cc1ccc(O)cc13")
27.9

----------
Target: CYP2D6 (Homo sapiens, UniProt P10635)
Assay: Example 2 phase 1 drug-drug interaction study, rivoceranib 700 mg QD + 5+1 cocktail: dextromethorphan probe
Conditions: human, in vivo, AUC(0-t), Mean (CV %), Rivoceranib plus 5 + 1 cocktail, healthy volunteers, 5+1 cocktail day 11 + rivoceranib 700 mg QD days 6-15
Method: This example describes a pharmacokinetic interaction study in healthy human volunteers dosed with 700 mg rivoceranib and a mixture of cytochrome P450 enzyme (CYP1A2, CYP2C9, CYP2C19, CYP2D6, and CYP3A) substrates. The primary objective of the study was to evaluate the effect of rivoceranib 700 mg once daily (QD) on the pharmacokinetics (PK) of various CYP substrates to determine drug-drug interactions of rivoceranib. […]
# AUC(0-t) per entry
reportedEndpoint: AUC(0-t) (ng·h/mL)

>>> reported("COc1ccc2c(c1)[C@]13CCCC[C@@H]1[C@H](C2)N(C)CC3 [dextromethorphan]")
23.7
>>> reported("CN1CC[C@@]23CCCC[C@@H]2[C@@H]1Cc1ccc(O)cc13 [dextrorphan]")
34.5

----------
Target: CYP1A2 (Homo sapiens, UniProt P05177)
Experiment: Example 2 phase 1 drug-drug interaction study, rivoceranib 700 mg QD + 5+1 cocktail: caffeine probe
Settings: human, in vivo, oral, probe caffeine, Cmax, Geometric LSM, Rivoceranib plus 5 + 1 cocktail, healthy volunteers, 5+1 cocktail day 11 + rivoceranib 700 mg QD days 6-15
reportedEndpoint: Cmax (ng/mL)

>>> reported("Cn1c(=O)c2c(ncn2C)n(C)c1=O [caffeine]")
5210

----------
Target: CYP1A2 (Homo sapiens)
Assay: Example 2 phase 1 drug-drug interaction study, rivoceranib 700 mg QD + 5+1 cocktail: caffeine probe
Details: human, in vivo, oral, probe caffeine, AUC(0-∞), Geometric LSM, Rivoceranib plus 5 + 1 cocktail, healthy volunteers, 5+1 cocktail day 11 + rivoceranib 700 mg QD days 6-15
reportedEndpoint: AUC(0-inf) (µg·h/mL)

>>> reported("Cn1c(=O)c2c(ncn2C)n(C)c1=O [caffeine]")
45.4

----------
System: CYP3A
Test: Example 2 phase 1 drug-drug interaction study, rivoceranib 700 mg QD + 5+1 cocktail: midazolam probe
Conditions: human, in vivo, AUC(0-t), Geometric LSM, Rivoceranib plus 5 + 1 cocktail, healthy volunteers, 5+1 cocktail day 11 + rivoceranib 700 mg QD days 6-15
reportedEndpoint: AUC(0-t)

>>> reported("Cc1ncc2n1-c1ccc(Cl)cc1C(c1ccccc1F)=NC2")
"75.2 ng·h/mL"

----------
Target: UniProt:P05177
Experiment: Example 2 phase 1 drug-drug interaction study, rivoceranib 700 mg QD + 5+1 cocktail: caffeine probe
Settings: human, in vivo, oral, probe caffeine, Cmax, Mean (CV %), Rivoceranib plus 5 + 1 cocktail, healthy volunteers, 5+1 cocktail day 11 + rivoceranib 700 mg QD days 6-15
reportedEndpoint: Cmax (ng/mL)

>>> reported("Cn1c(=O)c2c(ncn2C)n(C)c1=O [caffeine]")
5330

----------
# Cmax per entry
Biological target: CYP2D6 (Homo sapiens)
Assay: Example 2 phase 1 drug-drug interaction study, rivoceranib 700 mg QD + 5+1 cocktail: dextromethorphan probe
Conditions: human, in vivo, po, Cmax, Geometric LSM, 5 + 1 cocktail alone, healthy volunteers, single oral 5+1 cocktail dose day 1, fasted
reportedEndpoint: Cmax

>>> reported("CN1CC[C@@]23CCCC[C@@H]2[C@@H]1Cc1ccc(O)cc13")
"4.66 ng/mL"
>>> reported("COc1ccc2c(c1)[C@]13CCCC[C@@H]1[C@H](C2)N(C)CC3")
"1.4 ng/mL"

----------
# Cmax per entry
Biological target: UniProt:P10635
Test: Example 2 phase 1 drug-drug interaction study, rivoceranib 700 mg QD + 5+1 cocktail: dextromethorphan probe
Conditions: human, in vivo, Cmax, Mean (CV %), Rivoceranib plus 5 + 1 cocktail, healthy volunteers, 5+1 cocktail day 11 + rivoceranib 700 mg QD days 6-15
reportedEndpoint: Cmax (ng/mL)

>>> reported("COc1ccc2c(c1)[C@]13CCCC[C@@H]1[C@H](C2)N(C)CC3")
2.53
>>> reported("CN1CC[C@@]23CCCC[C@@H]2[C@@H]1Cc1ccc(O)cc13")
4.88

----------
Biological target: UniProt P10635
Assay: Example 2 phase 1 drug-drug interaction study, rivoceranib 700 mg QD + 5+1 cocktail: dextromethorphan probe
Conditions: human, in vivo, AUC(0-t), Geometric LSM, Rivoceranib plus 5 + 1 cocktail, healthy volunteers, 5+1 cocktail day 11 + rivoceranib 700 mg QD days 6-15
reportedEndpoint: AUC(0-t) (ng·h/mL)

>>> reported("CN1CC[C@@]23CCCC[C@@H]2[C@@H]1Cc1ccc(O)cc13")
33.7
>>> reported("COc1ccc2c(c1)[C@]13CCCC[C@@H]1[C@H](C2)N(C)CC3")
27.1
